experiment: A673 Ewing sarcoma viability loss – cell-based, CellTiter-Glo luminescence, cherry-pick retest, confirmation (AID 720587); details: A673 Ewing sarcoma viability, CellTiter-Glo ATP luminescence, 72 h; at 26 µM (top of the series)
In this section, each of the compounds is paired with its reported activity change, negative = cytotoxicity.
Give the quantity in %, number only.

Study these solved cases before continuing.
Compound: CCc1cnc(N2[C@H](C#N)[C@H](c3ccc(C#Cc4ccccc4F)cc3)[C@H]2CO)s1
Unit Abbrev: %
Meas Value: -10.8

Compound: Cc1noc(C)c1NC(=O)Nc1ccc2c(c1)CC(=O)N([C@H](C)CO)C[C@@H](C)[C@@H](CN(C)Cc1ccc(Cl)c(Cl)c1)O2
Unit Abbrev: %
Meas Value: 7.25

Notebook: `COc1cc(/C=N/NS(=O)(=O)c2ccc3ccccc3c2)ccc1OCc1ccc(C(=O)O)cc1` , activity change, negative = cytotoxicity read as 0.172

So for `CCn1c(C)cc(C(=O)CN2C(=O)c3ccccc3S2(=O)=O)c1C` , the logged activity change, negative = cytotoxicity turned out to be 9.42

// activity change, negative = cytotoxicity value for CCCc1cc(=O)oc2c3c(c4c(c12)OC(C)(C)C=C4)OC(C)C(C)C3O (stereo not drawn) : -3.35

# activity change, negative = cytotoxicity of `Cc1ccc(/C=C2\SC(=S)N(CCC(=O)NNC(=O)c3ccccc3O)C2=O)cc1` = 6.17

# activity change, negative = cytotoxicity of CCOc1ccc(C(c2c(NC(=O)c3ccccc3)sc(C)c2C)N2CCN(CCO)CC2)cc1 (stereo not drawn) = 9.4

Reported activity change, negative = cytotoxicity ( O=C(/C=C/c1ccc(Cl)cc1Cl)N(Cc1ccc(Cl)cc1)C1CCS(=O)(=O)C1 (stereo not drawn) ) = 2.8

The value of activity change, negative = cytotoxicity measured for the compound `O=C(CNC(=O)Cc1ccccc1)N=Nc1c(O)n(Cc2ccc3c(c2)OCO3)c2ccccc12` turned out to be -1.52

activity change, negative = cytotoxicity reading for `COc1cccc(S(=O)(=O)N(C)C[C@H]2OCc3cnnn3CCCC(=O)N([C@@H](C)CO)C[C@H]2C)c1` : 0.226

# activity change, negative = cytotoxicity (compound: `O=C(CCCN1C(=O)/C(=C/c2ccccc2Cl)SC1=S)NNC(=O)c1ccc(Cl)cc1Cl` ) is -0.616

Sample `Cc1c(Cl)cnc(NC(=O)COC(=O)c2ccc3ncsc3c2)c1Cl` ; activity change, negative = cytotoxicity observed: 12.1
